# MEASUREMENT_DESCRIPTION: A CellTox Green Cytotoxicity Assay to monitor cytotoxicity in HEK293 cells - 24 hour (AID 1224875); further: nearly all actives have a fitted effect of over 45% in size
# CONDITIONS_USED: CellTox Green fluorescence; series mostly up to 76.8 µM
Records with an inconclusive call do not appear. Active and inactive are the calls of the source. The call rests on the fitted dose curve; in most records, active means well fitted activation curve with a large enough effect in the repeat runs; inconclusive means weak or mixed curves; inactive means flat fitted curve, though single readings scatter.
Returns: one label drawn from 1 = active, 0 = inactive

Tell me the recorded outcome of this test for O=C1OCc2ccccc21 .
0

Tell me the recorded outcome of this test for CSc1nnc(C(C)(C)C)c(=O)[nH]1 .
0

Tell me the recorded outcome of this test for Oc1ccc(Cl)cc1C1CCCC1 .
1

Tell me the recorded outcome of this test for [Cl][Dy]([Cl])[Cl] .
0

Tell me the recorded outcome of this test for O=[N+]([O-])c1ccc(CO)cc1 .
0

Tell me the recorded outcome of this test for CC(C)(c1ccc(Oc2ccc(N)cc2)cc1)c1ccc(Oc2ccc(N)cc2)cc1 .
0

====

# MEASUREMENT_DESCRIPTION: qHTS assay to identify small molecule agonists of the estrogen related receptor (ERR) signaling pathway (AID 1224820)
# CONDITIONS_USED: ERR reporter cell line, luciferase agonist mode; series mostly up to 46.1 µM
Inconclusive results are not listed. Active and inactive are the calls of the source. The call rests on the fitted dose curve; in most records, active means well fitted activation curve with a large enough effect in the repeat runs; inconclusive means weak or mixed curves; inactive means no such curve, though single readings can be large or run the other way.
Returns: one label drawn from active, inactive

Tell me the recorded outcome of this test for Oc1cc2c(cc1O)CN(C(=S)NCCc1ccc(Cl)cc1)CCC2 .
inactive

Tell me the recorded outcome of this test for NC1(C(=O)O)CC1 .
inactive

Tell me the recorded outcome of this test for CCCCOC(=O)NS(=O)(=O)c1sc(CC(C)C)cc1-c1ccc(Cn2c(CC)nc3c(C)cc(C)nc32)cc1 .
inactive

Tell me the recorded outcome of this test for Cc1cccc(C(=O)NCN2CCN(c3ccccc3C#N)CC2)c1 .
inactive

Tell me the recorded outcome of this test for CCC(NC(C)C)C(O)c1ccc(O)c(O)c1 (stereo not given) .
inactive

Tell me the recorded outcome of this test for COC(=O)[C@H]1[C@H]2C[C@H]3c4[nH]c5ccccc5c4CCN3C[C@H]2CC[C@@H]1O .
inactive

Tell me the recorded outcome of this test for CCN(CC)CCCCNc1ncc2cc(-c3c(Cl)cccc3Cl)c(NC(=O)NC(C)(C)C)nc2n1 .
inactive

Tell me the recorded outcome of this test for CC(C)(C)[C@]1(O)CCN2C[C@H]3c4ccccc4CCc4cccc(c43)[C@@H]2C1 .
inactive

Tell me the recorded outcome of this test for COc1ccc2c(c1)c(CC(=O)O)c(C)n2Cc1ccc(Cl)cc1 .
inactive

Tell me the recorded outcome of this test for NCCSSCCN .
inactive

Tell me the recorded outcome of this test for CCCCCCCCCCCCCCCCCCN(CCCCCCCCCCCCCCCCCC)CCCN(CCO)CCO .
inactive

Tell me the recorded outcome of this test for O=Nc1c(-c2c(O)[nH]c3ccccc23)[nH]c2ccccc12 .
active

Tell me the recorded outcome of this test for O=c1onc2cnc3ccccc3n12 .
inactive

Tell me the recorded outcome of this test for CCCCCCCCCC(=O)NC(CN1CCOCC1)[C@H](O)c1ccccc1 (stereo not given in full) .
inactive

Tell me the recorded outcome of this test for CN[C@H](CC(C)C)C(=O)N[C@H]1C(=O)N[C@@H](CC(N)=O)C(=O)N[C@H]2C(=O)N[C@H]3C(=O)N[C@H](C(=O)N[C@H](C(=O)O)c4cc(O)cc(O)c4-c4cc3ccc4O)[C@H](O)c3ccc(c(Cl)c3)Oc3cc2cc(c3O[C@@H]2O[C@H](CO)[C@@H](O)[C@H](O)[C@H]2O[C@H]2C[C@](C)(N)[C@H](O)[C@H](C)O2)Oc2ccc(cc2Cl)[C@H]1O .
inactive
